Where do these numbers come from? They come from PubChem BioAssay (NCI).

# Test system: HL-60(TB) leukemia
# protocol_description: NCI tumour cell line growth inhibition, 48 h; in the data active = GI50 below about 0.43 µM; inactive = the rest
Return exactly one item of active, inactive

Observe how each entry below is paired with its result.
Q. Hello, I am checking results. What call was entered for O=[N+]([O-])c1ccc(Nc2ccccc2-c2ccccc2)c2nonc12 ?
A. inactive

Q. Same read-out for CC1=NN(C(=O)c2ccccc2O)C(=O)/C1=C/c1ccc([N+](=O)[O-])cc1 ?
A. inactive

Q. Same read-out for CCCN(CCC)CCCNCc1cc(I)cc(C)c1O ?
A. inactive

New cases:
Q. Hello, I am checking results. What call was entered for O=C(Nc1ccc(Cl)cc1Cl)c1ccc(NC2=C(Cl)C(=O)N(Cc3ccccc3)C2=O)cc1 ?
A. inactive

Q. Same read-out for CO[C@H](C(=O)[C@@H](O)[C@@H](C)O)[C@@H]1Cc2cc3cc(O[C@H]4C[C@@H](O[C@H]5C[C@@H](O)[C@H](O)C(C)O5)[C@H](O)C(C)O4)c(C)c(O)c3c(O)c2C(=O)[C@H]1O[C@H]1C[C@@H](O[C@H]2C[C@@H](O[C@H]3C[C@@H](OC)[C@H](O)C(C)O3)[C@@H](O)C(C)O2)C(O)(O)C(C)O1 (some centres undefined) ?
A. inactive

Q. Same read-out for FC(F)(F)c1ccc(-c2nc(-c3nc4cc(Cl)c(Cl)cc4[nH]3)c3ccccn23)cc1 ?
A. inactive

---

# System: A498 renal
# protocol_description: NCI tumour cell line growth inhibition, 48 h
Exercise: for every item that follows, state its recorded TGI.

A selection of reference data follows.
Q. Requested read-out TGI, target or system A498 renal, entry CC1=C(C(=O)NCc2ccccc2)C(c2ccc(C3C(C(=O)NCc4ccccc4)=C(C)NC(C)=C3C(=O)NCc3ccccc3)cc2)C(C(=O)NCc2ccccc2)=C(C)N1
A. 31.7 µM

Q. Same read-out for O=C1NC(N/N=C\C(O)C(O)C(O)CO)=N/C1=C/c1ccccc1 (configuration not stated) ?
A. > 100 µM

Q. Same read-out for COc1cc(C(=O)OCCCCCCCCCCC[P+](c2ccccc2)(c2ccccc2)c2ccccc2)ccc1O ?
A. 5.23 µM

Please go through the list and note TGI for each compound.
1. COC(=O)c1c2c(cc3c1CC1(Cc4ccccc4C1=O)C3)CCC2 (configuration not stated)
2. CC(=O)NC1C(OCc2ccccc2)OC(CO)C(O)C1OCC(=O)NC(C)C(=O)NC(CCC(=O)NCCCCNc1ccc([N+](=O)[O-])c2[nH]c3ccccc3c(=O)c12)C(N)=O (configuration not stated)
3. O=C(Nc1c(O)[nH]c(=S)[nH]c1=O)c1ccccn1
4. O=C1N[C@H]2c3c(Cl)sc(Cl)c3/C(=N/O)[C@H]2O1

A.
["> 100 µM", "> 100 µM", "> 100 µM", "> 100 µM"]

---

# Tested on: NCI-H23 lung
# protocol_description: NCI tumour cell line growth inhibition, 48 h
Exercise: for every item that follows, state its recorded TGI.

Q. // lookup TGI for Cc1ccc(C(=O)O/N=C2/CCCC/C2=C\c2ccccc2)cc1
A. > 100 µM

Q. Same read-out for O=C1c2c(F)c(F)c(F)c(F)c2SC2=NCCN12 ?
A. 10.4 µM

Q. Same read-out for O=P([O-])(O)OP(=O)([O-])O.[NH-][C@H]1CCCC[C@@H]1[NH-].[OH-].[OH-].[Pt+4] ?
A. 46.1 µM

Q. Same read-out for COC(=O)c1cn(CCCC(=O)O)nn1 ?
A. > 100 µM

Q. Same read-out for Cc1nc2ccc(CN(C)c3ccc(C(=O)N[C@@H](CCC(=O)O)C(=O)O)s3)cc2c(=O)[nH]1 ?
A. > 100 µM

Q. Same read-out for COc1ccc(Cn2c(C)nc3c2C(=O)c2ccccc2C3=O)cc1 ?
A. 16.5 µM

Q. Same read-out for CCOC(=O)c1cccc(NC(=O)CCl)c1 ?
A. 13.1 µM

Q. Same read-out for [O-]/[N+](=C\c1ccccc1)[C@H](COCc1ccccc1)c1ccccc1 ?
A. > 100 µM

Please go through the list and note TGI for each molecule.
1. Cc1ccc(C)n1-c1ccccc1C1SCCCS1
2. O=c1[nH]c(=O)n(C2CC(O)C(CO)O2)cc1I (centres undefined)
3. CC1=NN(C(=O)CSc2nnc(SCC(=O)N3N=C(C)CC3(O)c3ccccc3)s2)C(O)(c2ccccc2)C1 (centres undefined)
4. COc1ccc(/C=C2\CN(C)Cc3c2nc(N)nc3-c2ccc(OC)cc2)cc1
5. CN(C)c1ccc2c(c1)C(=O)N(OS(=O)(=O)c1ccc([N+](=O)[O-])cc1)C2=O
6. COc1ccc(-c2[nH]ncc2-c2cc3c(c(OC)c2)OCC(=O)N3)cc1

A.
["> 100 µM", "> 100 µM", "> 100 µM", "> 100 µM", "64 µM", "> 77.7 µM"]

Please go through the list and note TGI for each molecule.
1. CC(=O)C1=C(O)C=C2Oc3c(C(=O)/C=C/c4cc(C(F)(F)F)cc(C(F)(F)F)c4)c(O)c(C)c(O)c3[C@]2(C)C1=O
2. CN(C)CC(/C(Cc1ccccc1)=N\NC(=O)C[n+]1ccccc1)c1ccccc1 (centres undefined)
3. O=C(Nc1cccc2ccccc12)Oc1ccccc1C1CCCCC1
4. Cc1nc2sccn2c1/C=C1/C(=O)Nc2ccccc21
5. CCOc1ccc(NC(=O)CC2SC(=Nc3ccc(Cl)cc3)NC2=O)cc1 (centres undefined)

A.
2.87 µM
> 100 µM
33.7 µM
> 100 µM
> 100 µM

Please go through the list and note TGI for each molecule.
1. COC(=O)c1c2c(cc3c1CC1(Cc4ccccc4C1=O)C3)CCC2 (centres undefined)
2. FC(F)(F)C1(Cl)C(c2ccccc2)=C1c1ccccc1
3. CN(C)c1nc2sc3c(c2c(=O)o1)CCCC3
4. CCCC(=O)O
5. N=C(c1ccccc1)N(c1ccccc1)c1ccccc1

A.
1: > 100 µM; 2: 29.3 µM; 3: > 100 µM; 4: > 18700 µM; 5: > 100 µM

Please go through the list and note TGI for each molecule.
1. Cc1cccc(C(=O)c2cccc3ccccc23)c1C(=O)O
2. C#CCC[C@@H]1O[C@@]1(C)CC/C=C(\C)CC/C=C/C=O
3. NNC(=S)N/N=C(\CCCC(=O)NCCc1ccccc1)CC(=O)c1ccccc1
4. COc1cc2c(/C=N\N=C(N)N)c(Cl)[nH]c2cc1C
5. C=CCC1OC(C)(C)Oc2ccc(OCOCCOC)cc21 (centres undefined)
6. O=C(c1ccccc1)c1c(NCC(O)CN2CCCC2)n(Cc2ccccc2)c(=O)n(Cc2ccccc2)c1=O (centres undefined)
7. CCCN(CCC)CCCNCc1cc(I)cc(C)c1O

A.
1. > 100 µM
2. > 100 µM
3. > 100 µM
4. 28 µM
5. > 100 µM
6. 44.1 µM
7. 33.5 µM
